biological target: T1, Full-length human HER3 extracellular domain (ECD) (human, UniProt P21860 20-643); assay: BIACORE 3000 SPR, mAb captured by anti-human Fc, ECD as analyte, 25 C
T1 construct: also called human HER3 ECD; HER-3 ECD full length
T1 sequence (P21860 20-643): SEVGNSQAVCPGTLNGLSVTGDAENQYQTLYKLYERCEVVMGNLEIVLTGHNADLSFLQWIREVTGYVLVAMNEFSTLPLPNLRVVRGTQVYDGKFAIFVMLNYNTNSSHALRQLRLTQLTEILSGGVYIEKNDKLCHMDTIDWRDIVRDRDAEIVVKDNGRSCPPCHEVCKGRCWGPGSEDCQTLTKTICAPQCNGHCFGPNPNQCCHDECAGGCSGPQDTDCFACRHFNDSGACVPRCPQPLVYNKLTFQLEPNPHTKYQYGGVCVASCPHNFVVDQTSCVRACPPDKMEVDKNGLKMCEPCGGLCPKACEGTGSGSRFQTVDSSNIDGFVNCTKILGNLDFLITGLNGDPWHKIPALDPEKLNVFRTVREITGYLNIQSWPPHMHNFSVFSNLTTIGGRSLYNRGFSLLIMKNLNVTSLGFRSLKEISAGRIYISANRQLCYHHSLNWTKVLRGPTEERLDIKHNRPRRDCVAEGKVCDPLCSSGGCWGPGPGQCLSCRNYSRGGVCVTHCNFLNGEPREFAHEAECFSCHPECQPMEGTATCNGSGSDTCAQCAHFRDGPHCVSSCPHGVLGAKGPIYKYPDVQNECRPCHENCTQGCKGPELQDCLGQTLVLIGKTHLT
parameter_measured: kon (M⁻¹ s⁻¹)
Write the value in M⁻¹ s⁻¹ as a bare number.

// below: answered binders
- binder: "15D5 H3L1 antibody (antibody, V domains shown, Humanized 15D5 variant) VH: QVQLVQSGAEVKKPGASVKVSCKASGYTFTDYNMNWVRQAPGQGLEWMGGINPNYGTTVYNQKFKGKATLTVDQSISTAYMELSRLRSDDTAVYYCARMTTIVPFDYWGQGTTVTVSS VL: DIQMTQSPSSLSASVGDRVTITCRASQDISNYLNWYQQKPGKAPKLLIYYTSTLHSGVPSRFSGSGSGTDYTFTISSLQPEDIATYYCQQGYTLPWTFGGGTKVEIKR"
  kon (M⁻¹ s⁻¹): 40500
- binder: "15D5 H1L3 antibody (antibody, V domains shown, Humanized 15D5 variant; also called 15D5 HIL3 antibody) VH: QFQLVQSGAEVKKPGASVKVSCKASGYSFTDYNMNWVKQAPGQGLEWIGGINPNYGTTVYNQKFKGKATLTVDQSISTAYMELSRLRSDDTAVYYCARMTTIVPFDYWGQGTTVTVSS VL: DIQMTQSPSSLSASVGDRVTITCRASQDISNYLNWYQQKPGKAPKLLIYYTSTLHSGVPSRFSGSGSGTDFTLTISSLQPEDFATYYCQQGYTLPWTFGQGTKLEIKR"
  kon (M⁻¹ s⁻¹): 34400

Data point: 1D9 H0L9 RR antibody (antibody, V domains shown, Humanized RR variant; also called 1D9 HOL9 RR antibody) VH: QVQLVQSGAEVKKPGASVKVSCKASGYTFTSYWMHWVRQAPGQGLEWMGVIDPSDGYSHYNQKFKGRVTMTRDTSISTAYMELSRLRSDDTAVYYCARGLAGTLDYWGQGTTVTVSS VL: DVVMTQSPLSLPVTLGQPASISCRSSQSIVHSSGNTYLQWFQQRPGQSPKLLISKVSNRFSGVPDRFSGSGSGTDFTLKISRVEAEDVGVYYCFQGSHVPWTFGQGTKLEIKR ; kon = 377000
